Values from the supplement of paper PMC11246515

- assay notes: total protein half-life in vivo (active degradation + dilution); higher = more stable protein
- assay context: wild type E. coli NCM3722; growth: N-lim chemostat; doubling time 12 h
So I've got a bunch of sequences here, and I need their total protein half-life in vivo values.
Report only the number, with the unit h understood.

The recorded total protein half-life in vivo for `MIVLVTGATAGFGECITRRFIQQGHKVIATGRRQERLQELKDELGDNLYIAQLDVRNRAAIEEMLASLPAEWCNIDILVNNAGLALGMEPAHKASVEDWETMIDTNNKGLVYMTRAVLPGMVERNHGHIINIGSTAGSWPYAGGNVYGATKAFVRQFSLNLRTDLHGTAVRVTDIEPGLVGGTEFSNVRFKGDDGKAEKTYQNTVALTPEDVSEAVWWVSTLPAHVNINTLEMMPVTQSYAGLNVHRQ` is 8.94

Noted for MIALIQRVTRASVTVEGEVTGEIGAGLLVLLGVEKDDDEQKANRLCERVLGYRIFSDAEGKMNLNVQQAGGSVLVVSQFTLAADTERGMRPSFSKGASPDRAEALYDYFVERCRQQEMNTQTGRFAADMQVSLVNDGPVTFWLQV [P0A6M4] : its total protein half-life in vivo reads 6.66

Given item MKTETPSVKIVAITADEAGQRIDNFLRTQLKGVPKSMIYRILRKGEVRVNKKRIKPEYKLEAGDEVRIPPVRVAEREEEAVSPHLQKVAALADVILYEDDHILVLNKPSGTAVHGGSGLSFGVIEGLRALRPEARFLELVHRLDRDTSGVLLVAKKRSALRSLHEQLREKGMQKDYLALVRGQWQSHVKSVQAPLLKNILQSGERIVRVSQEGKPSETRFKVEERYAFATLVRCSPVTGRTHQIRVHTQYAGHPIAFDDRYGDREFDRQLTEAGTGLNRLFLHAAALKFTHPGTGEVMRIEAPMDEGLKRCLQKLRNAR [P0AA39] , the value recorded as its total protein half-life in vivo is 9.13
